# SYSTEM UNDER TEST: Glutamate NMDA receptor
# TEST SUMMARY: Antagonist activity at NMDA receptor in rat cerebellar granule neurons assessed as inhibition of glutamate-induced increase in intracellular calcium level by fluorometric assay
# Assay type: functional, cell-based
ENDPOINT LABEL: pIC50
Scale: negative log10 of molar concentration, which is what pIC50 denotes.

Worked cases, answers included:
[
  {
    "ITEM SMILES": "c1ccc2c(c1)C1CC3CC2CC(N2CCCCC2)(C1)O3",
    "pIC50": 3.77
  },
  {
    "ITEM SMILES": "NC12CC3CC(CC(C1)c1ccccc13)O2",
    "pIC50": 3.39
  },
  {
    "ITEM SMILES": "CCN(CC)C12CC3CC(CC(C1)c1ccccc13)O2",
    "pIC50": 4.02
  }
]

Which value of pIC50 has been reported for CN(C)C12CC3CC(CC(C1)c1ccccc13)O2 in the records?
4.41

I would be grateful if you could share the reported pIC50 for CC12CC3CC(N)(CC(C1)c1ccccc13)O2 .
3.78

Query (molecule): C#CCNC12CC3CC(CC(C1)c1ccccc13)O2 ; field requested: pIC50
3.94

Tell me the measured pIC50 of CN(C)C12CC3CC(C)(CC(C1)c1ccccc13)O2 , please.
5.11

Using the record for CNC12CC3CC(CC(C1)c1ccccc13)O2 , report its pIC50.
4.55

I am curious: what pIC50 value has been reported for CCN(CC)C12CC3CC(C)(CC(C1)c1ccccc13)O2 ?
4.66
